FYI, the data here is from patent US20140187615.

# test-target: phospholamban (PLN), pentameric (UniProt P61015)
# Sequence: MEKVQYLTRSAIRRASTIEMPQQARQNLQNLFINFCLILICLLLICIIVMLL
# test-summary: FP
# conditions-used: ACE Kd 0.5 ± 0.1 nM; also gel shift (FIG. 1C); MOPS, 0.1% C12E8, 1 mM MgCl2, 5 mM CaCl2, pH 7.0
measurement-type: Kd (nM)

> print(dat)
                              sequence.text  measurement.type  recorded.number
1  NNNNNNNNNNNNNNNNNNNNNNNNNNNNNNNNNNNNNNNNNNNNNNNNNNNNNNNNNNNNNNNNNNNNNNNNNNNNNNNN [ssDNA random 80-mer]                Kd              3.1
